Where do the numbers come from? From ChEMBL document CHEMBL1144386.

Collected pKd values appear next to each entry.
# ASSAY NAME: Dissociation constant against galectin-3 using competitive fluorescence polarization
pKd: −log10 of the molar value.

{"COMPOUND": "OCC1O[C@@H](O/N=C/c2ccco2)C(O)[C@@H](O)C1O (some centres undefined)", "READOUT QUALIFIER": "=", "pKd": 2.19}
{"COMPOUND": "OCC1O[C@@H](O/N=C/c2ccc3ccccc3c2)C(O)[C@@H](O)C1O (some centres undefined)", "READOUT QUALIFIER": "=", "pKd": 2.64}
{"COMPOUND": "OCC1O[C@@H](O/N=C/c2ccnc3ccccc23)C(O)[C@@H](O)C1O (some centres undefined)", "READOUT QUALIFIER": "=", "pKd": 3.21}
{"COMPOUND": "Cc1ccccc1/C=N/O[C@@H]1O[C@@H](CO)[C@H](O)[C@H](O)[C@@H]1O", "READOUT QUALIFIER": "=", "pKd": 2.24}
{"COMPOUND": "COc1ccc(/C=N/O[C@@H]2OC(CO)C(O)[C@H](O)C2O)c(O)c1 (some centres undefined)", "READOUT QUALIFIER": "=", "pKd": 2.77}
{"COMPOUND": "OCC1O[C@@H](O/N=C/Cc2ccccc2)C(O)[C@@H](O)C1O (some centres undefined)", "READOUT QUALIFIER": "<", "pKd": 2.00}
{"COMPOUND": "OCC1O[C@@H](O/N=C/c2ccc(O)c(O)c2)C(O)[C@@H](O)C1O (some centres undefined)", "READOUT QUALIFIER": "=", "pKd": 3.26}
{"COMPOUND": "OCC1O[C@@H](O/N=C/c2cccnc2)C(O)[C@@H](O)C1O (some centres undefined)", "READOUT QUALIFIER": "=", "pKd": 2.48}
{"COMPOUND": "O=[N+]([O-])c1ccc(/C=N/O[C@@H]2OC(CO)C(O)[C@H](O)C2O)cc1 (some centres undefined)", "READOUT QUALIFIER": "=", "pKd": 2.66}
{"COMPOUND": "OCC1O[C@@H](O/N=C/c2ccc(O)cc2O)C(O)[C@@H](O)C1O (some centres undefined)", "READOUT QUALIFIER": "=", "pKd": 3.08}
{"COMPOUND": "OCC1O[C@@H](O/N=C/c2c[nH]c3ccccc23)C(O)[C@@H](O)C1O (some centres undefined)", "READOUT QUALIFIER": "=", "pKd": 3.48}
{"COMPOUND": "CCC(/C=N/O[C@@H]1OC(CO)C(O)[C@H](O)C1O)CC (some centres undefined)", "READOUT QUALIFIER": "=", "pKd": 2.14}
{"COMPOUND": "OCC1O[C@@H](O/N=C/C2CCCCC2)C(O)[C@@H](O)C1O (some centres undefined)", "READOUT QUALIFIER": "=", "pKd": 2.32}
{"COMPOUND": "OCC1O[C@@H](O/N=C/c2ccc(F)cc2)C(O)[C@@H](O)C1O (some centres undefined)", "READOUT QUALIFIER": "=", "pKd": 2.51}

---

# ASSAY NAME: Dissociation constant against galectin-3 using competitive fluorescence polarization

{"SUBSTANCE": "LACTOSE, ANHYDROUS", "Kd": "220 µM"}
